# Tested on: barnyardgrass (Echinochloa crus-galli)
# experimentNotes: Test G Post-Emergence Protocol
# Assay type: in vivo
# conditions: Echinochloa crus-galli, post-emergence, 312 h, 250 g ai/ha, evaluated after 13 days, read-out: damage to plant, Barnyardgrass (100=total damage to plant; 0=no damage to plant)
# Text: Seeds of corn (Zea mays), giant foxtail (Setaria faberi), barnyardgrass (Echinochloa crus-galli), ivy-leaved morning glory (Ipomoea hederacea), redroot pigweed (Amaranthus retroflexus) and velvetleaf (Abutilon theophrasti) were sown in standard soil in pots. […]
Below, each entry is listed with its recorded pest or weed control at 250 g/ha.
Respond with the bare value in %.

Example entries begin here.
> print(dat)
                                   compound  endpointvalue
1  Cc1ccc([C@H]2CN(C)C(=O)[C@@H]2C(=O)Nc2ccccc2F)cc1Cl (racemic) [Compound 1420]             40
2  CN1C[C@H](c2ccc(C(F)(F)F)cc2)[C@@H](C(=O)Nc2ccc(F)c(Cl)c2)C1=O (racemic) [Compound 1434]             20
3  COc1cccc(NC(=O)[C@@H]2C(=O)N(C)C[C@H]2c2ccc(C(F)(F)F)cc2)n1 (racemic) [Compound 1601]             70
4  Cc1cnc(NC(=O)[C@@H]2C(=O)N(C)C[C@H]2c2ccc(C(F)(F)F)cc2)nc1 (racemic) [Compound 1575]              0

query: Return pest or weed control at 250 g/ha (reported value) for this compound: COc1ccc(OC)c([C@H]2CN(C)C(=O)[C@@H]2C(=O)Nc2ccccc2F)c1 (racemic) [Compound 1453]
result: 10

query: Return pest or weed control at 250 g/ha (reported value) for this compound: Cc1c(NC(=O)[C@H]2C(=O)N(C)C[C@@H]2c2ccc(C(F)(F)F)cc2)cccc1[N+](=O)[O-] (racemic) [Compound 1423]
result: 10

query: Return pest or weed control at 250 g/ha (reported value) for this compound: CN1C[C@H](c2ccc(C(F)(F)F)cc2)[C@@H](C(=O)Nc2cccc(C(F)F)c2)C1=O (racemic) [Compound 1498]
result: 30

query: Return pest or weed control at 250 g/ha (reported value) for this compound: CN1C[C@H](c2ccc(C(F)(F)F)cc2)[C@@H](C(=O)Nc2ccc(C(F)(F)F)cc2F)C1=O (racemic) [Compound 1426]
result: 20

query: Return pest or weed control at 250 g/ha (reported value) for this compound: CN1C[C@@H](c2cc(Cl)nc(Cl)c2)[C@H](C(=O)Nc2cccc(F)c2F)C1=O (racemic) [Compound 1494]
result: 50

query: Return pest or weed control at 250 g/ha (reported value) for this compound: Cc1ccc([C@H]2CN(C)C(=O)[C@@H]2C(=O)Nc2cccnc2F)cc1 [Compound 1398]
result: 80

query: Return pest or weed control at 250 g/ha (reported value) for this compound: CSc1ccccc1NC(=O)[C@@H]1C(=O)N(C)C[C@H]1c1ccc(C(F)(F)F)nc1 (racemic) [Compound 1584]
result: 70

query: Return pest or weed control at 250 g/ha (reported value) for this compound: CN1C[C@H](c2ccc3c(c2)OCCO3)[C@@H](C(=O)Nc2cccc(F)c2F)C1=O (racemic) [Compound 1490]
result: 60

query: Return pest or weed control at 250 g/ha (reported value) for this compound: Cc1nc(F)ccc1[C@@H]1CN(C)C(=O)[C@H]1C(=O)Nc1cccc(F)c1F (racemic) [Compound 1492]
result: 60

query: Return pest or weed control at 250 g/ha (reported value) for this compound: Cc1cc(Cl)ccc1NC(=O)[C@H]1C(=O)N(C)C[C@@H]1c1ccc(C(F)(F)F)cc1 (racemic) [Compound 1442]
result: 0
